molecular target: Nucleoprotein (Rift valley fever virus (strain ZH-548 M12)) (UniProt P21700); assay: inhibitors of RVFV nucleoprotein–RNA binding, primary screen, biochemical, fluorescence polarization (AID 651828); details: RVFV N-RNA binding, stronger effect = lower value, concentration not given here
Sequence (P21700 whole entry, looked up): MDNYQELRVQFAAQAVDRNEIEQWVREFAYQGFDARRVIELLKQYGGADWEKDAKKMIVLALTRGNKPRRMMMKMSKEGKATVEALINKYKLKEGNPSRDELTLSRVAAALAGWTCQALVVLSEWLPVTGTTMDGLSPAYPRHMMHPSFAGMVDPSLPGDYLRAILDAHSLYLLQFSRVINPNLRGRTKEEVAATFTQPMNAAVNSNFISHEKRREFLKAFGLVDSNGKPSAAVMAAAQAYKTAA
About 25 (0.1%) of roughly 20,000 compounds were called active. The full list was thinned out, with actives kept by preference.
In this section we review reported % bound values for a set of molecules.

                                   molecule  quantity            result
0           CCN(CC)C(=O)/C=C/c1cccc2ccccc12   % bound   101% (inactive)
1  COc1ccccc1C(c1c(C)[nH][nH]c1=O)C(C#N)C#N (stereo unspecified)   % bound  95.8% (inactive)
2  NS(=O)(=O)c1ccc(NS(=O)(=O)/C=C/c2ccccc2)cc1   % bound  80.7% (inactive)
3  CN1CCN(C(=O)c2ccccc2NC(=O)c2ccc(Cl)cc2)CC1   % bound   100% (inactive)
4  CCCC(=O)N1CCN(c2ccc(NC(=O)c3cccc(C)c3OC)cc2Cl)CC1   % bound  92.1% (inactive)
5  COc1cccc(-c2ccc(=O)n(CC(=O)NCc3ccccc3)n2)c1   % bound    85% (inactive)

Problem: State the recorded % bound for this entry: CC(Cn1cnc2ccccc21)C(=O)N/N=C/c1ccccc1 (stereo unspecified)
Solution: 98.5% (inactive)

Problem: State the recorded % bound for this entry: `O=C(O)c1cc(N=Cc2ccccc2)ccc1O`
Solution: 108% (inactive)

Problem: State the recorded % bound for this entry: `C[C@H](N[C@@H](CCc1ccccc1)C(=O)O)C(=O)N1Cc2ccccc2C[C@H]1C(=O)O`
Solution: 100% (inactive)

Problem: State the recorded % bound for this entry: Cc1nc2sc(C(c3ccccc3Cl)N(C)Cc3ccccc3)c(O)n2n1 (stereo unspecified)
Solution: 108% (inactive)

Problem: State the recorded % bound for this entry: `c1ccc2c(c1)OC1OC2Oc2ccccc21`
Solution: 98.8% (inactive)

---

target: Nucleoprotein (Rift valley fever virus (strain ZH-548 M12)); assay: inhibitors of RVFV nucleoprotein–RNA binding, primary screen, biochemical, fluorescence polarization (AID 651828); details: RVFV N-RNA binding, stronger effect = lower value, concentration not given here
Screen size: about 20,000 compounds; about 25 (0.1%) were called active. This is one part of a sample in which actives are shown more often than they occur.
quantity: % bound (%)
Number in %, nothing else.

The cases that follow already have their % bound on record.
>>> df
                                   compound  numeric_readout
0               C/C(=N\NC1=NCCCCC1)c1ccccc1             95.3
1  COc1cc(C2c3c(oc4ccccc4c3=O)C(=O)N2CCCOC(C)C)cc(Br)c1O (configuration not stated)             97.6
2        CC(C)(O)C(/C=C/c1ccccc1)=N/NC(N)=O             96.4
3          COc1ccc(C(=O)c2cnc3ccccn23)cc1Cl             96.7
4  O=C(CC1SC(=NC2CC3C=CC2C3)NC1=O)Nc1ccc(Cl)cc1 (configuration not stated)             89.9
5  COc1cc(CN2CCN3CCCC3C2C2CCCCC2)cc(OC)c1 (configuration not stated)              107

Problem: State the recorded % bound for this entry: `Nc1nonc1C(=NCc1ccccc1)NO`
Solution: 96.3

Problem: State the recorded % bound for this entry: CCC(C)NC(=S)NC1CCCCC1 (configuration not stated)
Solution: 112

Problem: State the recorded % bound for this entry: `Cc1cc(C)c2c(N)c(-c3n[nH]c(=S)n3C)sc2n1`
Solution: 98.2

Problem: State the recorded % bound for this entry: `CC(=O)Oc1ccc(S(=NS(=O)(=O)c2ccccc2)c2ccc(OC(C)=O)cc2)cc1`
Solution: 94.2

Problem: State the recorded % bound for this entry: COc1ccc(N2CC(NC(=O)NCC3CCCO3)CC2=O)cc1OC (configuration not stated)
Solution: 110

Problem: State the recorded % bound for this entry: CCN(CC)C(=O)N1CC(C)CC(C)C1 (configuration not stated)
Solution: 95.2
